B1: CDC14A (parent)
chain: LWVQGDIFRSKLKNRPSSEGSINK

Variants of: B1
Assay procedure: protein stability index of a GFP-peptide fusion (GPS, HEK-293T) (PSI 1-6); higher = more stable;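 note: lentivirally expressed fusions sorted by FACS into six bins by GFP to DsRed ratio, PSI derived from sequencing read proportions per bin multiplied by bin number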
Condition notes: c terminus: a fixed tail appended
Metric name: protein stability index

INSERT INTO measurements (mutation_string, data_value) VALUES
  ('F8K', 3.23),
  ('N23G', 3.05),
  ('S18Q', 2.39),
  ('I7R', 2.31),
  ('P16Y', 1.91),
  ('R9T', 2.85),
  ('N23A', 2.08),
  ('I7Q', 2.97),
  ('Q4N', 2.66),
  ('S17L', 2.63),
  ('G20V', 2.23),
  ('L1D', 4.57),
  ('W2D', 4.4),
  ('K11V', 2.36),
  ('W2R', 3.46),
  ('K24G', 2.26),
  ('L1N', 4.3),
  ('L12A', 3.21),
  ('I22L', 2.79),
  ('K13F', 1.68),
  ('E19M', 2.02),
  ('L1T', 4.24),
  ('R9G', 2.56),
  ('I7N', 3.82),
  ('I7S', 3.21),
  ('S21V', 2.41),
  ('R15W', 2.25),
  ('K11N', 3),
  ('N14I', 2.43),
  ('Q4V', 1.81),
  ('N14W', 2.15),
  ('K24I', 1.8),
  ('L12D', 2.83),
  ('G20E', 3.9),
  ('S10K', 2.35),
  ('S10Y', 3.11),
  ('S21N', 2.18),
  ('R15G', 2.91),
  ('L1I', 2.17),
  ('E19S', 2.29),
  ('R9M', 2.18),
  ('N14C', 2.13),
  ('K24D', 2.79),
  ('G20M', 2.73),
  ('V3K', 3.26),
  ('R15H', 2.62);

Entry source: the supplement of paper PMC10567573
